measured on: EP2 Receptors in Immortalized Human Non-pigmented Ciliary Epithelial Cells (Homo sapiens)
Construct: Immortalized human non-pigmented ciliary epithelial cells (containing EP2 receptors); endogenous in cells; host or cells: immortalized human non-pigmented ciliary epithelial cells
Sequence (P43116 whole entry): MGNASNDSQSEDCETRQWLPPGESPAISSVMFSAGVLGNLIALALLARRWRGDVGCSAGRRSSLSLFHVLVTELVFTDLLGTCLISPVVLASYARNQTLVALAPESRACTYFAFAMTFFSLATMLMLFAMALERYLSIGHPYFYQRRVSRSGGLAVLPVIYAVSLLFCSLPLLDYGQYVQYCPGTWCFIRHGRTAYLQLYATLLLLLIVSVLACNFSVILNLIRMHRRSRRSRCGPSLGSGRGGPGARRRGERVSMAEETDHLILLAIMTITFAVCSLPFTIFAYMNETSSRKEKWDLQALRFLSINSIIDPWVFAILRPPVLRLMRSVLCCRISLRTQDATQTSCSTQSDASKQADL
measurement notes: cAMP production (radioimmunoassay) via EP2 receptors in immortalized human non-pigmented ciliary epithelial cells
Type: cell-based
measurement parameters: cAMP production, 15-60 min at 23° C.; read-out: Potency (EC50, nM) at EP2 Receptors in Immortalized Human Non-pigmented Ciliary Epithelial Cells
Please go through the items and note down their EC50.
Answer format: numeric, nM implied, no suffix.

Item: CCCCC(C)(C)[C@H](O)/C=C/[C@H]1CCC(=O)[C@@H]1C/C=C\CCCC(=O)O Test system: EP2 Receptors in Immortalized Human Non-pigmented Ciliary Epithelial Cells (Homo sapiens) Read-out: EC50 Value: ? 739

Quick one: CCCC1([C@H](O)C/C=C/[C@H]2[C@H](O)CC(=O)[C@@H]2CCCCCCC(=O)OC)CCC1 [Butaprost, reference compound] 212

Quick one: CCCCC(C)(C)[C@H](O)/C=C/[C@H]1[C@H](O)CC(=O)[C@@H]1C/C=C\CCCC(=O)O 686

Quick one: CCCCC[C@H](O)/C=C/[C@H]1CCC(=O)[C@@H]1CCCCCCC(=O)O 500
